- subjectOfTest: PD-1/PD-L1 interaction (Homo sapiens, UniProt Q9NZQ7)
- Construct: expressed in transfected cells; host or cells: CHO cells (aAPC-PD-L1) co-cultured with Jurkat cells overexpressing PD-1 and an NFAT-luciferase reporter
- Sequence (Q9NZQ7 19-290): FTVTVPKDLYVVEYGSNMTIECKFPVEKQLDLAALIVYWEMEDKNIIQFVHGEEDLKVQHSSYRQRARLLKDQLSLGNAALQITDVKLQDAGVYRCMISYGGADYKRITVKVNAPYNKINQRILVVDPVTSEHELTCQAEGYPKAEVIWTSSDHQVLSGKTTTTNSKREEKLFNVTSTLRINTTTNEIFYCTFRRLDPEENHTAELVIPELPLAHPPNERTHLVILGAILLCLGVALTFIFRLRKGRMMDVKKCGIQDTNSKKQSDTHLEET
- protocolText: PD-1/PD-L1 NFAT reporter co-culture assay
- Format: cell-based
- conditionLabel: Jurkat PD-1 NFAT-luciferase cells co-cultured with aAPC-PD-L1 CHO cells, 6 hrs at 37° C.; read-out: EC50 NFAT Luciferase
With a cut-off of 300 nM, any EC50 strictly below it is called T; any EC50 meeting it or above is called F.

compound="Cc1c(COc2cc(OCc3cncc(C#N)c3)c(CNC[C@@H](O)CC(=O)O)cc2Cl)cccc1-c1cccc(-c2ccc3c(CCNC[C@@H](O)CC(=O)O)coc3c2)c1C [Example 348]" classassignment=F
compound="C[C@@](CO)(NCc1cc(Cl)c(O[C@H]2CCc3c(-c4cccc5c4CC[C@@H]5Oc4nc(OCc5cncc(S(C)(=O)=O)c5)c(CNCCO)cc4Cl)cccc32)nc1OCc1cncc(S(C)(=O)=O)c1)C(=O)O [Example 690]" classassignment=T

--- query ---
# input Criterion: EC50 strictly below 300 nM. Is it met by COc1nc(OCc2cccc(-c3cccc(COc4nc(OC)c(CN[C@H]5CCCC[C@@H]5C(=O)O)cc4Cl)c3C)c2C)c(Cl)cc1CN[C@H]1CCCC[C@@H]1C(=O)O [Example 80] ?
# output F

====

- subjectOfTest: PD-1/PD-L1 interaction (Homo sapiens)
- Construct: expressed in transfected cells; host or cells: CHO cells (aAPC-PD-L1) co-cultured with Jurkat cells overexpressing PD-1 and an NFAT-luciferase reporter
- protocolText: PD-1/PD-L1 NFAT reporter co-culture assay
- Type: cell-based
- conditionLabel: Jurkat PD-1 NFAT-luciferase cells co-cultured with aAPC-PD-L1 CHO cells, 6 hrs at 37° C.; read-out: EC50 NFAT Luciferase
testReadout: EC50 (nM)
Your answer should be a plain number; it is taken to be in nM.

// solved cases for EC50 follow
compound=Cc1c(COc2cc(OCc3cncc(C#N)c3)c(CN[C@@](C)(CO)C(=O)O)cc2Cl)cccc1-c1cccc(-c2ccc(OCCN3CCC4(CC3)CC(=O)N4)cc2)c1C subjectoftest="PD-1/PD-L1 interaction (Homo sapiens)" datavalue=260
compound=COc1nc(-c2cccc(-c3cccc(COc4nc(OC)c(CNC[C@@H](O)CC(=O)O)cc4Cl)c3Cl)c2Cl)ccc1CNC[C@@H]1CCC(=O)N1 subjectoftest="PD-1/PD-L1 interaction (Homo sapiens)" datavalue=140
compound=Cc1c(COc2cc(OCc3cncc(C#N)c3)c(CN[C@@](C)(CO)C(=O)O)cc2Cl)cccc1-c1cccc(-c2ccc(CNCCS(C)(=O)=O)cc2)c1C subjectoftest="PD-1/PD-L1 interaction (Homo sapiens)" datavalue=126

# input # assay system PD-1/PD-L1 interaction (Homo sapiens): give EC50 of COc1nc(OCc2cccc(-c3cccc(COc4nc(OC)c(CN5CCC[C@@H]5C(=O)O)cc4Cl)c3C)c2C)c(Cl)cc1CN1CCC[C@@H]1C(=O)O
# output 444

# input # assay system PD-1/PD-L1 interaction (Homo sapiens): give EC50 of COc1nc(OCc2cccc(-c3cccc(COc4cc(OCc5cncc(C#N)c5)c(CNCCO)cc4Cl)c3C)c2C)ccc1CNCCO
# output 1110

====

- subjectOfTest: PD-1/PD-L1 (Homo sapiens, UniProt Q9NZQ7)
- protocolText: PD-1/PD-L1 biochemical protein-protein interaction assay (ALPHA)
- conditionLabel: 0.3 nM His tagged PD-L1, 2.5 nM biotinylated Fc-PD-1, 60 minutes at 25° C., read-out: IC50 PD-L1-PD-1 Alpha IC50-mono PD-L1-fcP-D1
Overview of recorded pIC50 for various compounds
Scale for pIC50: -log10 of concentration given in mol/L; no unit attached.

compound=COc1nc(OCc2cccc(-c3cccc(COc4cc(OCc5cncc(C#N)c5)c(CNCCO)cc4Cl)c3C)c2C)ccc1CNCCO datavalue=7.51
compound=COc1nc(-c2cccc(-c3cccc(COc4nc(OC)c(CNC[C@@H](O)CC(=O)O)cc4Cl)c3Cl)c2Cl)ccc1CNC[C@@H]1CCC(=O)N1 datavalue=9.73
compound=COc1nc(O[C@H]2CCc3c(-c4cccc(-c5ccc(C6=NCCN6)c(OC)n5)c4Cl)cccc32)c(Br)cc1CN1CCCC[C@H]1C(=O)O datavalue=10.19
compound=COc1nc(-c2cccc(-c3cccc(-c4nc5ccc(CNC[C@@H]6CCC(=O)N6)cn5n4)c3Cl)c2Cl)ccc1CNC[C@@H]1CCC(=O)N1 datavalue=8.90
compound="Cc1c(COc2cc(OCc3cncc(C#N)c3)c(CN[C@@](C)(CO)C(=O)O)cc2Cl)cccc1-c1cccc(-c2ccc3c(c2)CCC3N2CC(C)C2)c1C (stereo partly shown)" datavalue=10.13
compound=Cc1c(COc2cc(OCc3cncc(C#N)c3)c(CN[C@@](C)(CO)C(=O)O)cc2Cl)cccc1-c1cccc(-c2ccc(CN3CC[C@H](O)C3)cc2)c1C datavalue=9.91
compound=COc1nc(-c2cccc(-c3cccc(-c4ccc5[nH]c(CN(C)C)cc5c4)c3Cl)c2Cl)ccc1CNC[C@@H]1CCC(=O)N1 datavalue=8.21
compound=COc1nc(-c2cccc(-c3cccc(-c4ccc5[nH]cc(CN(C)C)c5c4)c3Cl)c2Cl)ccc1CNC[C@@H]1CCC(=O)N1 datavalue=8.76
compound=CS(=O)(=O)c1cncc(COc2nc(OCc3cccc(-c4cccc(-c5ccc6c(c5)C[C@@H](N)C6)c4Cl)c3Cl)c(Br)cc2CNC[C@@H](O)CC(=O)O)c1 datavalue=9.29
compound="Cc1c(COc2cc(OCc3cncc(C#N)c3)c(CNC(C)(CO)C(=O)O)cc2Cl)cccc1-c1cccc(-c2ccc(CN3CC4(CNC4)C3)cc2)c1C (stereo not shown)" datavalue=9.98

# input Look up and report measured pIC50 for this entry: COc1nc(-c2cccc(-c3cccc4c3CC[C@@H]4Oc3nc(OCc4cncc(C#N)c4)c(CN[C@@](C)(CO)C(=O)O)cc3Br)c2Br)ccc1CNC[C@@H]1CCC(=O)N1
# output 9.92

# input Look up and report measured pIC50 for this entry: COc1nc(O[C@H]2CCc3c(-c4cccc5c4CC[C@@H]5Oc4nc(OC)c(CNC[C@@H](O)CC(=O)O)cc4Cl)cccc32)c(Cl)cc1CNC[C@@H](O)CC(=O)O
# output 10.00

# input Look up and report measured pIC50 for this entry: COc1cc(OCc2cccc(-c3cccc(COc4cc(OC)c(CNC[C@@H](O)CC(=O)O)c(OCc5cncc(C#N)c5)c4)c3C)c2C)cc(OCc2cncc(C#N)c2)c1CNC[C@@H](O)CC(=O)O
# output 9.22

# input Look up and report measured pIC50 for this entry: Cc1c(COc2cc(OCc3cncc(C#N)c3)c(CNC[C@@H](O)CC(=O)O)cc2Cl)cccc1-c1cccc(-c2ccc3ncnc(NCCO)c3c2)c1C
# output 9.54

# input Look up and report measured pIC50 for this entry: Cc1c(COc2cc(OCc3cncc(C#N)c3)c(CNC[C@@H](O)CC(=O)O)cc2Cl)cccc1-c1cccc(-c2ccc(OCCNCCO)c(C(N)=O)c2)c1C
# output 9.57

# input Look up and report measured pIC50 for this entry: COc1nc(O[C@H]2CCc3c(-c4cccc(-c5cnc(CN6CC(O)C6)c(OC)n5)c4Cl)cccc32)c(Cl)cc1CN1CC[C@H](C(=O)O)C1
# output 10.19

====

- subjectOfTest: PD-L1 (Homo sapiens, UniProt Q9NZQ7)
- Construct: determine if they can specifically dimerize the extracellular domains of PD-L1
- protocolText: PD-L1/PD-L1 dimerization biochemical protein-protein interaction assay (ALPHA)
- Format: binding
- conditionLabel: compound-induced PD-L1 dimerization, head prints '1 nM' (0.5 nM His-tagged PD-L1 and 0.5 nM FLAG-tagged PD-L1), read-out: AC50 PDL1 Dimer Alpha 1 nM
testReadout: AC50 (nM)
Your answer should be a plain number; it is taken to be in nM.

// solved cases for AC50 follow
compound="C[C@@](CO)(NCc1cc(Br)c(OCc2cccc(-c3cccc(-c4ccc5c(c4)C[C@@H](N)C5)c3Cl)c2Cl)nc1OCc1cncc(S(C)(=O)=O)c1)C(=O)O [Example 550]" subjectoftest="PD-L1 (Homo sapiens, UniProt Q9NZQ7)" unittag=nM datavalue=47.7
compound="Cc1c(COc2cc(OCc3cncc(C#N)c3)c(CN[C@@](C)(CO)C(=O)O)cc2Cl)cccc1-c1cccc(-c2ncc(CN3CC[C@@H](O)C3)cn2)c1C [Example 455]" subjectoftest="PD-L1 (Homo sapiens, UniProt Q9NZQ7)" unittag=nM datavalue=686
compound="Cc1c(COc2nc(OCc3cncc(C#N)c3)c(CN[C@@](C)(CO)C(=O)O)cc2Cl)cccc1-c1cccc(-c2ccc(OCCNCCO)cc2)c1C [Example 581]" subjectoftest="PD-L1 (Homo sapiens, UniProt Q9NZQ7)" unittag=nM datavalue=60.3
compound="Cc1c(COc2cc(OCc3cncc(C#N)c3)c(CN3C[C@@H](O)C[C@H]3C(=O)O)cc2Cl)cccc1-c1cccc(-c2ccc(OCCNCCO)cc2)c1C [Example 510]" subjectoftest="PD-L1 (Homo sapiens, UniProt Q9NZQ7)" unittag=nM datavalue=232

Proceeding to the next compound to report its AC50.
# input Look up and report measured AC50 for this entry: Cc1c(COc2cc(OCc3cncc(C#N)c3)c(CNC[C@@H](O)CC(=O)O)cc2Cl)cccc1-c1cccc(-c2ccc(CNC[C@@H](O)CC(=O)O)c(OC(F)F)c2)c1C [Example 461]
# output 128

The reported measurements were obtained from patent US12590062B2.
